Entry source: ChEMBL document CHEMBL1153529

# Organism: Rattus norvegicus
# Protocol notes: Displacement of [35S]tert-butylbicyclo[ 2.2.2]phosphorothionate from GABAA receptor in Wistar rat brain membrane at 100 nM relative to control
# Format: cell membranes
The entries below come with measured Activity values attached.
Please report the result as a number followed by the unit.

A selection of reference data follows.
C[C@H]([C@@H](O)[C@H](O)CC(F)(F)C(F)(F)C(F)(F)F)[C@H]1CC[C@H]2[C@@H]3COC(=O)[C@H]4C[C@H](O)[C@H](O)C[C@]4(C)[C@H]3CC[C@]12C = 95.1%
C[C@H]([C@@H](O)[C@H](O)CC(F)(C(F)(F)F)C(F)(F)F)[C@H]1CC[C@H]2[C@@H]3COC(=O)[C@H]4C[C@H](O)[C@H](O)C[C@]4(C)[C@H]3CC[C@]12C = 56.6%
C[C@H]([C@@H](O)[C@H](O)CC(F)(F)C(F)(F)C(F)(F)C(F)(F)C(F)(F)C(F)(F)F)[C@H]1CC[C@H]2[C@@H]3COC(=O)[C@H]4C[C@H](O)[C@H](O)C[C@]4(C)[C@H]3CC[C@]12C = 47.2%

Reported Activity for CC(=O)[C@H]1CC[C@H]2[C@@H]3CC[C@H]4C[C@H](O)CC[C@]4(C)[C@H]3CC[C@]12C [BREXANOLONE] : what is it? 56.2%

###

# Tested on: BJ
# Protocol notes: Cytotoxicity against human BJ cells after 72 hrs by calcein-AM assay
# Type: cell-based
Quantity measured: Activity

C[C@H]([C@@H](O)[C@H](O)CC(F)(C(F)(F)F)C(F)(F)F)[C@H]1CC[C@H]2[C@@H]3CC(=O)C4C[C@H](O)[C@H](O)C[C@]4(C)[C@H]3CC[C@]12C (stereo partly drawn) = Non-toxic
CC[C@@H](C(C)C)[C@@H](O)[C@H](O)[C@@H](C)[C@H]1CC[C@H]2[C@@H]3CC(=O)[C@H]4C[C@H](O)[C@H](O)C[C@]4(C)[C@H]3CC[C@]12C = Non-toxic
CC(C(O)C(O)CC(F)(F)C(F)(F)C(F)(F)F)C1CCC2C3CC(=O)C4CC(O)C(O)CC4(C)C3CCC12C (stereo not drawn) = Non-toxic

###

The entries below come with measured pIC50 values attached.
# System: CCRF-CEM
# Protocol notes: Cytotoxicity against human CEM cells after 72 hrs by calcein-AM assay
# Type: functional, cell-based
pIC50: −log10 of the molar value.

A selection of reference data follows.
CC(C(O)C(O)CC(F)(F)C(F)(F)C(F)(F)C(F)(F)C(F)(F)C(F)(F)F)C1CCC2C3CC(=O)C4CC(O)C(O)CC4(C)C3CCC12C (configuration not stated) = < 4.30
CC[C@@H](C(C)C)[C@@H](O)[C@H](O)[C@@H](C)[C@H]1CC[C@H]2[C@@H]3CC(=O)[C@H]4C[C@H](O)[C@H](O)C[C@]4(C)[C@H]3CC[C@]12C = 4.89
CC(C(O)C(O)CC(F)(F)C(F)(F)C(F)(F)F)C1CCC2C3CC(=O)C4CC(O)C(O)CC4(C)C3CCC12C (configuration not stated) = 4.45

Reported pIC50 for C[C@H]([C@@H](O)[C@H](O)CC(F)(C(F)(F)F)C(F)(F)F)[C@H]1CC[C@H]2[C@@H]3CC(=O)C4C[C@H](O)[C@H](O)C[C@]4(C)[C@H]3CC[C@]12C (some centres not stated) : what is it? < 4.30

Reported pIC50 for C[C@H]([C@@H](O)[C@H](O)CC(F)(C(F)(F)F)C(F)(F)F)[C@H]1CC[C@H]2[C@@H]3COC(=O)[C@H]4C[C@H](O)[C@H](O)C[C@]4(C)[C@H]3CC[C@]12C : what is it? < 4.30

Reported pIC50 for C[C@H]([C@@H](O)[C@H](O)CC(F)(F)C(F)(F)C(F)(F)F)[C@H]1CC[C@H]2[C@@H]3COC(=O)[C@H]4C[C@H](O)[C@H](O)C[C@]4(C)[C@H]3CC[C@]12C : what is it? < 4.30

Reported pIC50 for C[C@H]([C@@H](O)[C@H](O)CC(F)(F)C(F)(F)C(F)(F)C(F)(F)C(F)(F)C(F)(F)F)[C@H]1CC[C@H]2[C@@H]3COC(=O)[C@H]4C[C@H](O)[C@H](O)C[C@]4(C)[C@H]3CC[C@]12C : what is it? < 4.30
